- system-tested: T1, human CTLA-4 (CTLA4), full-length, expressed on the surface of CHO cells (human, UniProt P16410 36-223)
- T1 construct: also called huCTLA4
- T1 sequence (P16410 36-223): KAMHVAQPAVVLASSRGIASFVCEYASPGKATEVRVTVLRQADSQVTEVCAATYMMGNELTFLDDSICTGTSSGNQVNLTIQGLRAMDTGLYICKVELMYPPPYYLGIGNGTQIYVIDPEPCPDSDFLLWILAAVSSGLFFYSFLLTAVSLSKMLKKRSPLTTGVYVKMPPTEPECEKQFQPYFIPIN
- procedure-summary: flow cytometry on CTLA-4 CHO cells; MFI against WT CD80 ECD-Fc (R&D)
measurement-type: Fold change to WT CD80 (fold)

Sample records with Fold change to WT CD80:
variant CD80 IgV-Fc V22A/R29H/E35D/D46E/M47I (Fc fusion, not shown: a dimerising Fc or GST) VIHVTKEVKEVATLSCGHNVSAEELAQTHIYWQKDKKMVLTMMSGEINIWPEYKNRTIFDITNNLSIVILALRPSDEGTYECVVLKYEKDAFKREHLAEVTLSVKAD    0.43
variant CD80 IgV-Fc E35D/M47V/A71G/L85M/L97Q (Fc fusion, not shown: a dimerising Fc or GST) VIHVTKEVKEVATLSCGHNVSVEELAQTRIYWQKDKKMVLTMMSGDVNIWPEYKNRTIFDITNNLSIVILGLRPSDEGTYECVVMKYEKDAFKREHQAEVTLSVKAD    1.34
variant CD80 IgV-Fc E35D/D46E/M47V/L97Q (Fc fusion, not shown: a dimerising Fc or GST) VIHVTKEVKEVATLSCGHNVSVEELAQTRIYWQKDKKMVLTMMSGEVNIWPEYKNRTIFDITNNLSIVILALRPSDEGTYECVVLKYEKDAFKREHQAEVTLSVKAD    1.71
variant CD80 IgV-Fc V22A/E35D/V68E/A71D (Fc fusion, not shown: a dimerising Fc or GST, The molecule is an Fc fusion, which the general text describes as a dimer) VIHVTKEVKEVATLSCGHNVSAEELAQTRIYWQKDKKMVLTMMSGDMNIWPEYKNRTIFDITNNLSIEILDLRPSDEGTYECVVLKYEKDAFKREHLAEVTLSVKAD    2.45
variant CD80 IgV-Fc H18Y/Y31H/E35D/M47V/A71G/L85Q (Fc fusion, not shown: a dimerising Fc or GST) VIHVTKEVKEVATLSCGYNVSVEELAQTRIHWQKDKKMVLTMMSGDVNIWPEYKNRTIFDITNNLSIVILGLRPSDEGTYECVVQKYEKDAFKREHLAEVTLSVKAD    0.02
variant CD80 IgV-Fc E35D/M47V/T62A/A71G/V83A/Y87H/L97M (Fc fusion, not shown: a dimerising Fc or GST) VIHVTKEVKEVATLSCGHNVSVEELAQTRIYWQKDKKMVLTMMSGDVNIWPEYKNRTIFDIANNLSIVILGLRPSDEGTYECAVLKHEKDAFKREHMAEVTLSVKAD    0.1
variant CD80 IgV-Fc Q33L/E35D/M47L/V68M/L85Q/E88D (Fc fusion, not shown: a dimerising Fc or GST) VIHVTKEVKEVATLSCGHNVSVEELAQTRIYWLKDKKMVLTMMSGDLNIWPEYKNRTIFDITNNLSIMILALRPSDEGTYECVVQKYDKDAFKREHLAEVTLSVKAD    0.02
variant CD80 IgV-Fc Q33L/E35D/N48K/L85Q/L97Q (Fc fusion, not shown: a dimerising Fc or GST) VIHVTKEVKEVATLSCGHNVSVEELAQTRIYWLKDKKMVLTMMSGDMKIWPEYKNRTIFDITNNLSIVILALRPSDEGTYECVVQKYEKDAFKREHQAEVTLSVKAD    0.01
variant CD80 IgV-Fc Q33L/E35D/M43I/L85Q/R94W (Fc fusion, not shown: a dimerising Fc or GST) VIHVTKEVKEVATLSCGHNVSVEELAQTRIYWLKDKKMVLTMISGDMNIWPEYKNRTIFDITNNLSIVILALRPSDEGTYECVVQKYEKDAFKWEHLAEVTLSVKAD    0.01

[a] variant CD80 IgV-Fc Q33L/E35D/M47L/A71G/F92S (Fc fusion, not shown: a dimerising Fc or GST) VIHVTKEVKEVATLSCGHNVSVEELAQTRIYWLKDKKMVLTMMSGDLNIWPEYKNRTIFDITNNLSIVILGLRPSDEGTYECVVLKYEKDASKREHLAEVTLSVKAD
[b] variant CD80 IgV-Fc H18Y/E35D/V68M/L97Q (Fc fusion, not shown: a dimerising Fc or GST) VIHVTKEVKEVATLSCGYNVSVEELAQTRIYWQKDKKMVLTMMSGDMNIWPEYKNRTIFDITNNLSIMILALRPSDEGTYECVVLKYEKDAFKREHQAEVTLSVKAD
[c] variant CD80 IgV-Fc Q33L/E35D/M43V/M47I/A71G (Fc fusion, not shown: a dimerising Fc or GST) VIHVTKEVKEVATLSCGHNVSVEELAQTRIYWLKDKKMVLTMVSGDINIWPEYKNRTIFDITNNLSIVILGLRPSDEGTYECVVLKYEKDAFKREHLAEVTLSVKAD
Ask: Order field: Fold change to WT CD80 | Direction: descending (largest first) Please express your ranking as an ordered list of the labels.
Reply: b, c, a
(b: 0.97 fold, c: 0.08 fold, a: 0.01 fold)
